Assay: amyloid nucleation score (Sup35N fusion, yeast selection) (log enrichment); library NNK1; higher = more nucleation; inactive = no reads after selection;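 also: zero at mode of non-aggregating sequences after 7 days selection at 30°C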
I'd appreciate it if you could supply amyloid nucleation score values for the items below.

WWYSDMWMVSC = 2.34
SFCSFEF = 0.858
VRTFWCYCTWPASRYR = -0.001
SCLIFVSHSTEGYYSTPTFP = 2.26
TQVWTQRCPCKEASRPGLRT = -1.19
YDYLDALHLTEASKSGCLVN = 0.423
LLLVCMHGSFAMYMPLNNRW = 0.922
SLYLYMGWPSHWVESVLPYG = 0.043
KEGRPQSTLCNVVRGFREQY = -0.565
ASLSPNTASYNLELPSIMHM = 0.283

Provide amyloid nucleation score values for the following items, in order.
1. MVTTPFALTGFRDVMWCRAR
2. IYTDSVGLFCSYADMPSDRV
3. NNAGYRYALRKISSHLLRPV

Key:
[3.09, 0.372, -0.092]

Provide amyloid nucleation score values for the following items, in order.
1. SRVRVLASVSFMTVRMVFEV
2. AKELDNGIYFMKLWLREELE

Key:
[0.436, -0.743]

Provide amyloid nucleation score values for the following items, in order.
1. SHLCLAMVVRGV
2. WGRRLSR
3. DGGICYD
4. DMHLMSGDLGMRVRPGGSAV
5. TRLGYISRDKGYSPCR

Key:
0.507
0.122
0.733
0.371
-0.146

###

Assay: amyloid nucleation score (Sup35N fusion, yeast selection) (log enrichment); library NNK1; higher = more nucleation; inactive = no reads after selection
MEASUREMENT_TYPE: amyloid nucleation score

Guide cases for amyloid nucleation score, answers given:
TARWAKPVADNGCVNNTFLW = 2.15
QSVQHFGGYTKTLGASMGTF = -0.797
RISSVT = 0.17
RYMSHGIGGTPV = 0.142

Provide amyloid nucleation score values for the following items, in order.
1. FHHMVLE
2. RLQSKLLHCS
3. LFLFLRMLTFVTCLIMRLRV
4. TSEGHSLRNEEEGSSEGRCK
5. MVDMLVKMGYRLLGRYISMR

Key:
1: -0.783; 2: -0.169; 3: -1.73; 4: 0.905; 5: 0.942

Provide amyloid nucleation score values for the following items, in order.
1. SVCILHMRRSCVGKPPKYNA
2. VLFLTGFGNHSFRTDQMATG

Key:
1. inactive
2. 0.287

Provide amyloid nucleation score values for the following items, in order.
1. YGSSAL
2. GCYSQNICCVTCIKRRSIVS
3. FSFYMLRFFSKTSYYSLMSF
4. LRMKVINRNPWVKTLSFVLA
5. GAIDRGCVDLARTCSLGLTG
6. RFHWACKVYLSNYMV
7. NEEGVIQSFILVDALVVQGL
8. SCGSVFF

Key:
[-0.419, -1.02, -0.721, -0.297, 0.508, 0.69, 0.391, -0.758]

Provide amyloid nucleation score values for the following items, in order.
1. MPAMTMMWQ
2. SSYVNRDCAFLWDD

Key:
0.415
2.75

###

Experiment: amyloid nucleation score (Sup35N fusion, yeast selection) (log enrichment); library NNK3; higher = more nucleation; inactive = no reads after selection
MEASUREMENT_TYPE: amyloid nucleation score

SGFFSVAGIGWYTIYFCIYR = inactive
SLDWCIRVITGGLRSVVRA = inactive
ELYVMLGDGAFVRAIKDYVS = inactive
DLQLRNWCLWVSWWN = inactive
HISRYEITVGCLIFRLLTRE = 2.46

Provide amyloid nucleation score values for the following items, in order.
1. RRKLTAMVNTGEWMSQDDGS
2. QPCPYKLCQFFRKDA

Key:
1. inactive
2. inactive

Provide amyloid nucleation score values for the following items, in order.
1. LNFWTIAWARWRIFLCSVLQ
2. MYPHAQIEYYAVAHSLAIV
3. TMLRFIYSYDAFRR

Key:
1: inactive; 2: inactive; 3: 0.931

Provide amyloid nucleation score values for the following items, in order.
1. RPSCMFCPSHAMARLPPVGS
2. RLNGRDHL
3. CYRSISRRDPS
4. YNNTVCL
5. YNSFEFGVMSAL

Key:
1: inactive; 2: inactive; 3: inactive; 4: inactive; 5: inactive

Provide amyloid nucleation score values for the following items, in order.
1. NSNLDSSVYSVILYGLGVWM
2. KYFRARYHSPSEWLWSMIDW

Key:
1. 1.18
2. inactive

###

Test: amyloid nucleation score (Sup35N fusion, yeast selection) (log enrichment); library NNK2; higher = more nucleation; inactive = no reads after selection
MEASUREMENT_TYPE: amyloid nucleation score

Guide cases for amyloid nucleation score, answers given:
CMSRFGRCNFVHDTWMGFTR = 2.93
YFLSSFVSNWWAQYVYW = inactive
AVNGQGDS = -0.231
CLINMTIYGERWRCVNDVPN = 3.54

Provide amyloid nucleation score values for the following items, in order.
1. MLSIVNCNGSRVGYWTDS
2. GMPVLV
3. RGRTGRCSAFSQSILNGLRA
4. LYLKFYLCTGKDNDWNT

Key:
1: 5.85; 2: 0.093; 3: -0.181; 4: inactive

###

Experiment: amyloid nucleation score (Sup35N fusion, yeast selection) (log enrichment); library NNK3; higher = more nucleation; inactive = no reads after selection
MEASUREMENT_TYPE: amyloid nucleation score

Guide cases for amyloid nucleation score, answers given:
DWYIVRMARCG = 0.984
CDWFILKA = inactive
WKEVGHGRSASPSALK = inactive
DIWYRIKMFSIWKFMSHTTG = inactive
GTYPSKIKGFTLKGNLR = inactive
SNICKLFCCTESIKSQTRLW = 2.61
LCLRSVRLCGKAYSINDRRH = inactive
NFENMSCSNTVNVLFIEPGA = 1.14
TIEQCGLS = inactive
FDNKFKHSYYDTLAA = inactive

Provide amyloid nucleation score values for the following items, in order.
1. MSLGFALVSILVCF
2. YKFGVTPWLRFILSNVRKMM
3. FVRGCSRNSTRDCFYK
4. SVLICINCNVEHV
5. HMNGEDESDNGYIHFLRRER
6. EGILPYLRYLFRNLSVGCCW

Key:
["inactive", "inactive", "inactive", 2.44, "inactive", "inactive"]

Provide amyloid nucleation score values for the following items, in order.
1. SNLFFSDWTLCCRCIVLVFK
2. FLPDKGYTWKGTLWRWESNN
3. LKDYYFVLGHALYVLRNPMS
4. WFYMSRDGYEAVKRLTKLGK

Key:
[1.6, "inactive", 1.08, "inactive"]

Provide amyloid nucleation score values for the following items, in order.
1. NTRMDNLTNAWRAQYALSP
2. FWRSGNFYVNTVVLCASSRE
3. ENLLISKRCINGMA
4. SMCGYWRHI
5. SIGPVCIRTQSRPQITLRMM

Key:
1. inactive
2. 2.03
3. inactive
4. inactive
5. inactive

Provide amyloid nucleation score values for the following items, in order.
1. IMWGYDSWFCSANHRSQFRY
2. ATFQSRFFCCRSRGGTLGCD
3. WREAICLLICTIITVPWVNW
4. VWGMMFNMCYRELCLAMTLF
5. VRALNTAAWLSNTRCLGMDA

Key:
1: -0.314; 2: inactive; 3: inactive; 4: inactive; 5: inactive

Provide amyloid nucleation score values for the following items, in order.
1. KFRWVFYFGSAMEVREGSEF
2. RTSYNTFGGFYTNGWTLILR
3. IFFVYLLSANIGCYEWDVVP

Key:
1. -0.141
2. inactive
3. 0.821

Provide amyloid nucleation score values for the following items, in order.
1. WTRMCSSVRTVR
2. VEHHDFSRSSSAYTRVL
3. IRLLATF

Key:
inactive
inactive
inactive

###

I'd appreciate it if you could supply amyloid nucleation score values for the items below.
Experiment: amyloid nucleation score (Sup35N fusion, yeast selection) (log enrichment); library NNK2; higher = more nucleation; inactive = no reads after selection
Answers are plain numbers.

Provide amyloid nucleation score values for the following items, in order.
1. VFTKLTLSSI
2. DANLQIH

Key:
0.227
-0.774

###

I'd appreciate it if you could supply amyloid nucleation score values for the items below.
Test: amyloid nucleation score (Sup35N fusion, yeast selection) (log enrichment); library NNK2; higher = more nucleation; inactive = no reads after selection
One number for each entry.

Provide amyloid nucleation score values for the following items, in order.
1. FGLLYYAYNRFMLARINGHT
2. FVECILASLWTRFEKIRMAC
3. LVQGNTFE
4. NLRVAALAEGPRVNYRVSGW
5. PWETRSNA

Key:
1: -0.261; 2: -0.108; 3: 1.19; 4: 0.69; 5: -0.012
